- TESTED_SYSTEM: MAO-B (Homo sapiens, UniProt P27338)
- Construct: purchased Sigma-Aldrich
- Sequence (P27338 1-520): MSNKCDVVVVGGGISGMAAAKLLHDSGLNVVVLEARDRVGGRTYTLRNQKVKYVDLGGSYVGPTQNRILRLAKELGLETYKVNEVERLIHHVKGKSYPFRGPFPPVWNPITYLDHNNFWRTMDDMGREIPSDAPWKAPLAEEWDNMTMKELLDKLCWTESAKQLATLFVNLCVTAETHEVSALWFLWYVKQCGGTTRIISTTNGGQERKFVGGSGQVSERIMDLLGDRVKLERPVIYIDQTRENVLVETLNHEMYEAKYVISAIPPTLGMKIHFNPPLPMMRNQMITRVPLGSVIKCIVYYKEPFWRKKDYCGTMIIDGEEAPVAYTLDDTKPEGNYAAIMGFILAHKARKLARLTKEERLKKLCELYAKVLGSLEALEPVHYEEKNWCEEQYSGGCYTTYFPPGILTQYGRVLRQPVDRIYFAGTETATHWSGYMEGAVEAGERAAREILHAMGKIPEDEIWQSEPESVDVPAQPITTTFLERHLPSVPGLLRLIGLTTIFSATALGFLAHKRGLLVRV
- ASSAY_NOTES: continuous spectrophotometric MAO-B inhibition assay
- Assay type: biochemical
- CONDITION: 10 μM
QUANTITY_KIND: inhibition at 10 µM (%)

Query string: Which inhibition at 10 µM is listed for CN(C)c1ccc(-c2cc3ccc(O)cc3oc2=O)cc1 [derivative 17] ?
Result string: 90.1

Query string: What does the record list as inhibition at 10 µM for COc1ccc2oc(=O)c(-c3ccc(F)cc3)cc2c1 [derivative 21] ?
Result string: 88.8

Query string: If you can, please state the reported inhibition at 10 µM value of O=c1oc2ccc(O)cc2cc1-c1ccc(F)cc1 [derivative 24] .
Result string: 89.1

Query string: State the recorded inhibition at 10 µM for this entry: COc1cccc(-c2cc3ccccc3oc2=O)c1 [derivative 11, 3-(3-methoxyphenyl)-2H-chromen-2-one]
Result string: 90.3

Query string: Recorded inhibition at 10 µM of CC(=O)Oc1ccc(-c2cc3cc(Cl)cc(Cl)c3oc2=O)cc1F [derivative 7] , please.
Result string: 91

====

human CYP1A2 (Homo sapiens): reported pIC50 for various molecules.
pIC50: −log10 of the molar value.
QUANTITY_KIND: pIC50

# count of solved cases: 8
Query string: Suppose we examine the molecule `CC(=O)Oc1ccc(-c2cc3cc(Cl)cc(Cl)c3oc2=O)cc1F` ; what pIC50 value has been reported?
Result string: 4.34

Query string: Can you share its pIC50? I mean this molecule: `CC(=O)Oc1ccc2cc(-c3ccc(N(C)C)cc3)c(=O)oc2c1`
Result string: 3.43

Query string: // query pIC50 value for entry `COc1ccc2oc(=O)c(-c3ccc(C(F)(F)F)cc3)cc2c1`
Result string: 3.91

Query string: Using the record for `COc1ccc2oc(=O)c(-c3ccc(Oc4ccc(F)cc4)cc3)cc2c1` , report its pIC50.
Result string: 3.62

Query string: Endpoint output: pIC50 of `COc1ccc2cc(-c3cccc(OCc4ccccc4)c3)c(=O)oc2c1` . Value?
Result string: 5.52

Query string: Find the recorded pIC50 belonging to `COc1ccc(-c2cc3ccccc3oc2=O)cc1` and report it.
Result string: 4.59

Query string: May I ask what pIC50 has been recorded for `O=c1oc2cc(O)ccc2cc1-c1ccc(F)cc1` ?
Result string: 3.62

Query string: Dear colleague, I am looking for the recorded pIC50 of the following molecule: `COc1ccc(-c2cc3ccc(O)cc3oc2=O)cc1`
Result string: 3.77

A: COc1ccc2oc(=O)c(-c3cc(F)c(F)cc3F)cc2c1
B: O=c1oc2cc(O)ccc2cc1-c1ccc(O)cc1
C: COc1ccc(-c2cc3cc(Cl)cc(Cl)c3oc2=O)cc1
Query string: Please give the order of these molecules when sorted by pIC50, largest value leading. Please respond with the labels ordered as the question requires.
Result string: A, B, C
(A: 5.52, B: 4.66, C: 3.10)

a: COc1ccc(-c2cc3ccc(OC)cc3oc2=O)cc1
b: O=c1oc2ccc(O)cc2cc1-c1ccc(O)cc1
Query string: Kindly compare a with b and tell me which has the lower pIC50 figure. Field: selected label. Fill in the label of the entry you choose.
Result string: a
(a: 3.32, b: 4.48)

====

- TESTED_SYSTEM: human CYP1A2 (Homo sapiens, UniProt P05177)
- Construct: purchased Corning Inc
- Sequence (P05177 whole entry): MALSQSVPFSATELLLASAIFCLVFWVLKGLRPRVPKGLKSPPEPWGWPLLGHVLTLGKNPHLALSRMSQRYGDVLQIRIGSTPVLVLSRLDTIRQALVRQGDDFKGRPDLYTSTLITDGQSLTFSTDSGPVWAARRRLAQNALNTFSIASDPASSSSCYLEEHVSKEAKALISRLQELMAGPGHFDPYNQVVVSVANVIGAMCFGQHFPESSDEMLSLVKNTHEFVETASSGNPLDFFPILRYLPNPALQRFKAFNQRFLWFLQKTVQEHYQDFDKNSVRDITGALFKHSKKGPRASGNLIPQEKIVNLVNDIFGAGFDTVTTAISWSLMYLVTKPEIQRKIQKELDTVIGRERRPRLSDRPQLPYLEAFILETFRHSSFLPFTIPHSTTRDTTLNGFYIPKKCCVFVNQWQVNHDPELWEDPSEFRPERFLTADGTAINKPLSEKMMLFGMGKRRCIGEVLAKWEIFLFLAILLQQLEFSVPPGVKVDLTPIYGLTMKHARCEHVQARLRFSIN
- ASSAY_NOTES: CYP1A2 inhibition, 7-ethoxyresorufin fluorescence assay
- Type: biochemical
QUANTITY_KIND: IC50 (µM)

Query string: Quick one: IC50 of `CC(=O)Oc1cccc2cc(-c3ccc(N(C)C)cc3)c(=O)oc12` ?
Result string: 7

Query string: I am curious: what IC50 value has been reported for `O=c1oc2ccc(O)cc2cc1-c1ccc(F)cc1` ?
Result string: 3

Query string: Form field: reported IC50 of `COc1ccc(-c2cc3cc(OC)ccc3oc2=O)cc1`
Result string: 15

Query string: # query: IC50 of entry `COc1cccc(-c2cc3ccccc3oc2=O)c1`
Result string: 1.6

a: O=c1oc2ccc(O)cc2cc1-c1cccc(O)c1
b: Cc1ccc(-c2cc3ccc(O)cc3oc2=O)cc1
Query string: Hi there! Just curious which has the higher IC50 between a and b . Refer to your chosen item by its label in the answer.
Result string: b
(b: 180 µM, a: 24 µM)

====

- TESTED_SYSTEM: MAO-A (Homo sapiens)
- Construct: purchased Sigma-Aldrich
- Sequence (P21397 whole entry): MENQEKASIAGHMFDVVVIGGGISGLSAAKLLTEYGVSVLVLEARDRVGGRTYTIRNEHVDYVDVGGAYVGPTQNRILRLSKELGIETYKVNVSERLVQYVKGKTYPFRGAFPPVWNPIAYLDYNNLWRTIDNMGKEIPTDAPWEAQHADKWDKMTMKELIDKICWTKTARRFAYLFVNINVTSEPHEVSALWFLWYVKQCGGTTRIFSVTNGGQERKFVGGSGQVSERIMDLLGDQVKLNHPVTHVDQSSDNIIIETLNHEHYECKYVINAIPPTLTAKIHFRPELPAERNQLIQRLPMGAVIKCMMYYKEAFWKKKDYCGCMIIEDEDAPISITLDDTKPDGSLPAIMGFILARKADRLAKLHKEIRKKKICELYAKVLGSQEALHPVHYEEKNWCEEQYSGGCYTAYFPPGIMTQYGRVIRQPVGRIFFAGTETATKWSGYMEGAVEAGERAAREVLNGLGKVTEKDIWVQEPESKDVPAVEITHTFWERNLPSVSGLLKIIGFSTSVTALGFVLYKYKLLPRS
- ASSAY_NOTES: continuous spectrophotometric MAO-A inhibition assay
- Assay type: biochemical
- CONDITION: 100 µM, 1h
QUANTITY_KIND: MAO-A inhibition % (%)

Example entries and their recorded answers appear below.
Query string: // lookup MAO-A inhibition % for `COc1ccc(-c2cc3ccc(OC)cc3oc2=O)cc1`
Result string: 0.00

Query string: Fill blank: measured MAO-A inhibition % of the molecule `O=c1oc2ccccc2cc1-c1ccc(O)cc1` is ____.
Result string: 0.00

Query string: Query (molecule): `COc1ccc(-c2cc3cccc(OC(C)=O)c3oc2=O)cc1` ; field requested: MAO-A inhibition %
Result string: 4.08

Query string: Item under review: `O=c1oc2cc(O)ccc2cc1-c1ccc(O)cc1` . Reported MAO-A inhibition %?
Result string: 0.00

Query string: I am curious: what MAO-A inhibition % value has been reported for `O=c1oc2cc(O)cc(O)c2cc1-c1ccc(O)cc1` ?
Result string: 43.38

Query string: Any idea what MAO-A inhibition % was measured for `CC(=O)Oc1cccc2cc(-c3ccc(F)cc3)c(=O)oc12` ?
Result string: 22.33

Query string: Item under review: `COc1ccc(-c2cc3cc(Cl)cc(Cl)c3oc2=O)cc1` . Reported MAO-A inhibition %?
Result string: 0.00

Query string: Need MAO-A inhibition %, item `O=c1oc2c(O)cccc2cc1-c1cccc(O)c1`
Result string: 56.76

Query string: Can you look up the measured MAO-A inhibition % of `O=c1oc2ccc(O)cc2cc1-c1ccc(O)cc1` for me?
Result string: 0.00

Query string: Fill blank: measured MAO-A inhibition % of the molecule `COc1ccc(-c2cc3cccc(O)c3oc2=O)cc1` is ____.
Result string: 3.66

I: O=c1oc2cc(O)cc(O)c2cc1-c1cccc(O)c1
II: O=c1oc2c(CN3CCCCC3)c(O)ccc2cc1-c1ccccc1
Query string: Exercise: compare I and II ; which one has the greater MAO-A inhibition %? Answer by stating the label of the chosen item.
Result string: I
(I: 48.86%, II: 0.00%)

I: COc1ccc2cc(-c3cccc(OCc4ccccc4)c3)c(=O)oc2c1
II: O=c1oc2cc(O)ccc2cc1-c1ccccc1
Query string: Which gives the smaller MAO-A inhibition % number: I or II ? Refer to your chosen item by its label in the answer.
Result string: I

====

- TESTED_SYSTEM: recombinant human HSD1 (Homo sapiens, UniProt P14061)
- Construct: made in house; host or cells: Sf9 insect cells
- Sequence (P14061 1-328): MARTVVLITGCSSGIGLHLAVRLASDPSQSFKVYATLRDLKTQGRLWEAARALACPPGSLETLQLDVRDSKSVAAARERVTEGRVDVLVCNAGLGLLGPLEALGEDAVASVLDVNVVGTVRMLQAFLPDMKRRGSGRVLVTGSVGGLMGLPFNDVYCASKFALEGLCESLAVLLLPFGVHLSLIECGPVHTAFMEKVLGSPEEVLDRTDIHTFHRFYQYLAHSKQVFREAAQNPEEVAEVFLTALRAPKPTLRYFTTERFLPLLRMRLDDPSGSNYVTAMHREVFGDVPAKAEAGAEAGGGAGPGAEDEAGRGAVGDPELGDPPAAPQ
- ASSAY_NOTES: HSD1 inhibition by HPLC with tritium labeled estrone/estradiol
- Assay type: biochemical
- CONDITION: 1 μM
QUANTITY_KIND: HSD1 inhibition % (%)

Some solved entries appear below for comparison.
Query string: Field request: HSD1 inhibition % | item: `CC(=O)Oc1cccc2cc(-c3ccc(N(C)C)cc3)c(=O)oc12`
Result string: 0.00

Query string: Which HSD1 inhibition % reading was recorded for the compound `O=c1oc2cc(O)ccc2cc1-c1ccc(F)cc1` ?
Result string: 0.00

Query string: Reported HSD1 inhibition % for `CC(=O)Oc1ccc2cc(-c3ccc(F)cc3)c(=O)oc2c1` : what is it?
Result string: 0.30

Query string: Reported HSD1 inhibition % for `O=c1oc2cc(O)ccc2cc1-c1ccc(O)cc1` : what is it?
Result string: 48.20

Query string: Which value of HSD1 inhibition % has been reported for `O=c1oc2ccccc2cc1-c1ccc(O)cc1` in the records?
Result string: 5.40

Query string: Could you tell me which HSD1 inhibition % is on file for `Cc1ccc2oc(=O)c(-c3ccc(F)cc3)cc2c1` ?
Result string: 11

Query string: Could you share which HSD1 inhibition % value was measured for `CC(=O)Oc1ccc2cc(-c3ccccc3)c(=O)oc2c1` ?
Result string: 0.70

Query string: So what does the record say about HSD1 inhibition % for `Cc1ccc(-c2cc3ccc(O)cc3oc2=O)cc1` ?
Result string: 12.50

Query string: Fill in the blank: the reported HSD1 inhibition % of `COc1cccc(-c2cc3ccc(OC)cc3oc2=O)c1` is ____.
Result string: 3.50

Query string: I am curious: what HSD1 inhibition % value has been reported for `CC(=O)Oc1cccc2cc(-c3ccc(F)cc3)c(=O)oc12` ?
Result string: 0.00

1: O=c1oc2ccccc2cc1-c1cccc(O)c1
2: COc1ccc2cc(-c3cccc(OCc4ccccc4)c3)c(=O)oc2c1
3: COc1cc(OC)cc(-c2cc3cc(Cl)cc(Cl)c3oc2=O)c1
4: O=c1oc2ccc(O)cc2cc1-c1ccc(O)cc1
Query string: Ordering: ascending HSD1 inhibition %. Put the labels in the requested order and write them down.
Result string: 3, 2, 1, 4

a: O=c1oc2ccc(O)cc2cc1-c1cccc(O)c1
b: COc1ccc(-c2cc3cccc(OC(C)=O)c3oc2=O)cc1
Query string: Higher HSD1 inhibition %: a or b ? Identify your selection by its label.
Result string: a

a: COc1ccc(-c2cc3ccccc3oc2=O)cc1
b: COc1ccc(-c2cc3ccc(OC)cc3oc2=O)cc1
c: O=c1oc2c(CN3CCCCC3)c(O)ccc2cc1-c1ccccc1
Query string: Sort the 3 compounds by HSD1 inhibition %; largest first, smallest last. Answer by listing the labels in the requested order.
Result string: a, c, b
(a: 3.80%, c: 1.50%, b: 0.00%)

Source listed as paper PMC5840146.
